Where these numbers come from: PubChem BioAssay AID623911

Documented manual score across a set of compounds
- TARGET OF ASSAY: G protein-activated inward rectifier potassium channel 2 (Homo sapiens) + G protein-activated inward rectifier potassium channel 1 (Homo sapiens) (UniProt P48051+P48549)
- Sequence (P48051 whole entry, looked up): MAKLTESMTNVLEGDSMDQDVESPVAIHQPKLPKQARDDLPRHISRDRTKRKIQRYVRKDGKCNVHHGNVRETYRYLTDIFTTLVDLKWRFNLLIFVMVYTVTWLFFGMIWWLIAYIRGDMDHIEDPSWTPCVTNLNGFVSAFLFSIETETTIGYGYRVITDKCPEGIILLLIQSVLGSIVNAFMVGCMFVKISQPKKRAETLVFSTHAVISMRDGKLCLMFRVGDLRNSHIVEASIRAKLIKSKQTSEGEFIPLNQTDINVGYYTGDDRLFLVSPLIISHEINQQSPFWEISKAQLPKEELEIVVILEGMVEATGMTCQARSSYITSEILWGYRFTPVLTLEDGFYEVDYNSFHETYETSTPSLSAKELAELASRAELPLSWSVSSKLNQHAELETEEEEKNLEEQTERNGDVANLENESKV
- Sequence (P48549 whole entry, looked up): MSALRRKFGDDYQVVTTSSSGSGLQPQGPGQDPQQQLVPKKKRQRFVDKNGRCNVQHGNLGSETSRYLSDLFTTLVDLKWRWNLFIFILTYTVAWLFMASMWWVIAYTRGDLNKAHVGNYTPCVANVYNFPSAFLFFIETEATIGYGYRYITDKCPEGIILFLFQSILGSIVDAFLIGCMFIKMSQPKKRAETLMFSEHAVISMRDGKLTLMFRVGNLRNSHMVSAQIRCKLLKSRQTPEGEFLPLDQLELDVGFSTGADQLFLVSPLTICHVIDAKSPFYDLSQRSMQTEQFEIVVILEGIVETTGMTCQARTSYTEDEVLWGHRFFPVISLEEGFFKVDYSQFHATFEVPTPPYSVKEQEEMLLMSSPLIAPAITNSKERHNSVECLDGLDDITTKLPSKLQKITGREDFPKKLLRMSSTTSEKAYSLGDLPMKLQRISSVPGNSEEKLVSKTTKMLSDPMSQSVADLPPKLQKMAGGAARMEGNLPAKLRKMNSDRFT
- ASSAY COMMENT: GIRK1/2 thallium flux modulators, retest, confirmation, cell-based, HEK293 rmGlu8/hGIRK1/2, FluoZin-2 (AID 623911)
- CONDITIONS USED: HEK293 rmGlu8/hGIRK1/2, thallium flux FluoZin-2; actives lie on both sides; glutamate co-added at its EC20 level
In all, about 2,100 compounds went through this assay and about 770 (37%) were called active. The list shows a part of the results.
PARAMETER MEASURED: manual score

COMPOUND	MEASURED RESULT
CCOC(=O)c1c2n(c3c(NCc4ccccc4)ncnc13)CCCC2	-1
CCOC(=O)c1cccc(NC(=O)CSc2nnc(C3CCCCC3)n2C)c1	0
CC1CCN(c2c([N+](=O)[O-])c(=O)oc3ccccc23)CC1	0
Cc1ccc(C)c(-n2nnnc2SCC(=O)Nc2cccc(-c3nnc4n3CCCCC4)c2)c1	3
CN(C)CCCN1C(=O)c2oc3ccccc3c(=O)c2C1c1cccs1 (stereo unspecified)	0
CCOC(=O)C1CCCN(c2ncnc3c2oc2ccccc23)C1 (stereo unspecified)	-1
CS(=O)(=O)N(CC(=O)NCc1ccco1)c1ccc(Cl)c(C(F)(F)F)c1	0
CCN(CC)CCCN1C(=O)c2oc3ccccc3c(=O)c2C1c1cccs1 (stereo unspecified)	1
CSc1nc(-c2ccccc2)[nH]c(=S)c1C(C)=O	1
CC(Oc1ccc(Cl)cc1)C(=O)N/N=C/c1ccsc1 (stereo unspecified)	1
CCN(CC)CCN1C(=O)c2oc3ccccc3c(=O)c2C1c1ccccc1 (stereo unspecified)	0
